- System tested: HLA-A*02:01 (Homo sapiens, UniProt P04439, D140Y/D185E/D98H/E176V/E277Q/G131W/G231S/I119V/I121R/I166T/I218V/L300P/L318F/N151K/N90K/P208A/P217A/Q86G/Q94H/R138H/R169H/T345S)
- Procedure details: MHC binding assay: UV-ligand exchange with beta2m ELISA (exchange yield)
- Measurement conditions: binding to HLA-A*02:01, β2m ELISA
Measure name: Peptide exchange (MHC class I binding score, peptide exchange yield)

{"Substance": "300 (ALLGQTFSL; listed as Homo sapiens) [compound 300]", "Observed result": "“+++” (≥50 = +++)"}
{"Substance": "403 (KLYDRILRV; listed as Homo sapiens) [compound 403]", "Observed result": "“++” (≥20% = ++)"}
{"Substance": "390 (ALFMKQIYL; listed as Homo sapiens) [compound 390]", "Observed result": "“+++” (≥50 = +++)"}
{"Substance": "522 (TLWYRSPEV; listed as Homo sapiens) [compound 522]", "Observed result": "“++” (≥20% = ++)"}
{"Substance": "272 (ALGNTVPAV; listed as Homo sapiens) [compound 272]", "Observed result": "“+++” (≥50 = +++)"}
{"Substance": "313 (VLFDDELLMV; listed as Homo sapiens) [compound 313]", "Observed result": "“+++” (≥50 = +++)"}
{"Substance": "89 (YILPTETIYV; listed as Homo sapiens) [compound 89]", "Observed result": "“++++” (≥75% = ++++)"}
{"Substance": "584 (ALAEVAAMENV; listed as Homo sapiens) [compound 584]", "Observed result": "“+++” (≥50 = +++)"}
{"Substance": "118 (KLIDNNINV; listed as Homo sapiens) [compound 118]", "Observed result": "“+++” (≥50 = +++)"}
{"Substance": "614 (LLLPDQPPYHL; listed as Homo sapiens) [compound 614]", "Observed result": "“+++” (≥50 = +++)"}
{"Substance": "220 (LLQKFVPEI; listed as Homo sapiens) [compound 220]", "Observed result": "“++” (≥20% = ++)"}
{"Substance": "543 (GLLPTPITQQASL; listed as Homo sapiens) [compound 543]", "Observed result": "“+++” (≥50 = +++)"}
{"Substance": "395 (ALALGGIAVV; listed as Homo sapiens) [compound 395]", "Observed result": "“++++” (≥75% = ++++)"}
{"Substance": "163 (ALDEMGDLLQL; listed as Homo sapiens) [compound 163]", "Observed result": "“+++” (≥50 = +++)"}
{"Substance": "553 (SLLNQDLHWSL; listed as Homo sapiens) [compound 553]", "Observed result": "“++++” (≥75% = ++++)"}
{"Substance": "561 (YLQLTQSEL; listed as Homo sapiens) [compound 561]", "Observed result": "“+++” (≥50 = +++)"}
{"Substance": "591 (SMAELDIKL; listed as Homo sapiens) [compound 591]", "Observed result": "“+++” (≥50 = +++)"}
{"Substance": "314 (ALIAEGIALV; listed as Homo sapiens) [compound 314]", "Observed result": "“+++” (≥50 = +++)"}
{"Substance": "459 (ALITEVVRL; listed as Homo sapiens) [compound 459]", "Observed result": "“++” (≥20% = ++)"}
{"Substance": "460 (AMLEKNYKL; listed as Homo sapiens) [compound 460]", "Observed result": "“++++” (≥75% = ++++)"}
{"Substance": "35 (KINDTIYEV; listed as Homo sapiens) [compound 35]", "Observed result": "“+++” (≥50 = +++)"}
{"Substance": "590 (SLIEKLWQT; listed as Homo sapiens) [compound 590]", "Observed result": "“++” (≥20% = ++)"}
{"Substance": "518 (KLNAEVACV; listed as Homo sapiens) [compound 518]", "Observed result": "“+++” (≥50 = +++)"}
{"Substance": "276 (ALFTFSPLTV; listed as Homo sapiens) [compound 276]", "Observed result": "“+++” (≥50 = +++)"}
{"Substance": "320 (KMFEFVEPLL; listed as Homo sapiens) [compound 320]", "Observed result": "“++++” (≥75% = ++++)"}
{"Substance": "13 (YLMDESLNL; listed as Homo sapiens) [compound 13]", "Observed result": "“+++” (≥50 = +++)"}
{"Substance": "122 (FLLAEDDIYL; listed as Homo sapiens) [compound 122]", "Observed result": "“+++” (≥50 = +++)"}

###

- System tested: HLA-A*02:01 (Homo sapiens, UniProt P04439, D140Y/D185E/D98H/E176V/E277Q/G131W/G231S/I119V/I121R/I166T/I218V/L300P/L318F/N151K/N90K/P208A/P217A/Q86G/Q94H/R138H/R169H/T345S)
- Procedure details: MHC binding assay: UV-ligand exchange with beta2m ELISA (exchange yield)
- Measurement conditions: binding to HLA-A*02:01, β2m ELISA
Measure name: Peptide exchange (MHC class I binding score, peptide exchange yield)

{"Substance": "623 (YLVEDIQHI; listed as Homo sapiens) [compound 623]", "Observed result": "“+++” (≥50 = +++)"}
{"Substance": "120 (ALLGIPLTLV; listed as Homo sapiens) [compound 120]", "Observed result": "“+++” (≥50 = +++)"}
{"Substance": "209 (KLIESKHEV; listed as Homo sapiens) [compound 209]", "Observed result": "“++” (≥20% = ++)"}
{"Substance": "138 (YQYPRAILSV; listed as Homo sapiens) [compound 138]", "Observed result": "“+++” (≥50 = +++)"}
{"Substance": "369 (GLFPEHLIDV; listed as Homo sapiens) [compound 369]", "Observed result": "“+++” (≥50 = +++)"}
{"Substance": "571 (LLLTTIPQI; listed as Homo sapiens) [compound 571]", "Observed result": "“+++” (≥50 = +++)"}
{"Substance": "321 (GLFEDVTQPGILL; listed as Homo sapiens) [compound 321]", "Observed result": "“++++” (≥75% = ++++)"}
{"Substance": "40 (TLLVKVFSV; listed as Homo sapiens) [compound 40]", "Observed result": "“+++” (≥50 = +++)"}
{"Substance": "606 (ALWETEVYI; listed as Homo sapiens) [compound 606]", "Observed result": "“+++” (≥50 = +++)"}
{"Substance": "505 (SLAPGDVVRQV; listed as Homo sapiens) [compound 505]", "Observed result": "“++” (≥20% = ++)"}
{"Substance": "154 (ALDDGTPAL; listed as Homo sapiens) [compound 154]", "Observed result": "“++” (≥20% = ++)"}
{"Substance": "77 (ILVEADGAWVV; listed as Homo sapiens) [compound 77]", "Observed result": "“++++” (≥75% = ++++)"}
{"Substance": "487 (LLINSVFHV; listed as Homo sapiens) [compound 487]", "Observed result": "“+++” (≥50 = +++)"}
{"Substance": "303 (AILPQLFMV; listed as Homo sapiens) [compound 303]", "Observed result": "“++++” (≥75% = ++++)"}
{"Substance": "179 (KVLNELYTV; listed as Homo sapiens) [compound 179]", "Observed result": "“+++” (≥50 = +++)"}
{"Substance": "124 (ALYETELADA; listed as Homo sapiens) [compound 124]", "Observed result": "“++” (≥20% = ++)"}
{"Substance": "191 (LLQEGQALEYV; listed as Homo sapiens) [compound 191]", "Observed result": "“++” (≥20% = ++)"}
{"Substance": "219 (KLSDIGITV; listed as Homo sapiens) [compound 219]", "Observed result": "“+++” (≥50 = +++)"}
{"Substance": "598 (FLFPHSVLV; listed as Homo sapiens) [compound 598]", "Observed result": "“+++” (≥50 = +++)"}
{"Substance": "346 (LLDSKVPSV; listed as Homo sapiens) [compound 346]", "Observed result": "“+++” (≥50 = +++)"}
{"Substance": "205 (SLYPGTETMGL; listed as Homo sapiens) [compound 205]", "Observed result": "“+++” (≥50 = +++)"}
{"Substance": "616 (VLIDEVESL; listed as Homo sapiens) [compound 616]", "Observed result": "“+++” (≥50 = +++)"}
{"Substance": "55 (SLLDLETLSL; listed as Homo sapiens) [compound 55]", "Observed result": "“++++” (≥75% = ++++)"}
{"Substance": "381 (FIDEAYVEV; listed as Homo sapiens) [compound 381]", "Observed result": "“++” (≥20% = ++)"}
{"Substance": "582 (TLCDVILMV; listed as Homo sapiens) [compound 582]", "Observed result": "“+++” (≥50 = +++)"}
{"Substance": "327 (GLAPFTEGISFV; listed as Homo sapiens) [compound 327]", "Observed result": "“+++” (≥50 = +++)"}
{"Substance": "84 (VTFGEKLLGV; listed as Homo sapiens) [compound 84]", "Observed result": "“++” (≥20% = ++)"}
{"Substance": "107 (FLQPVDDTQHL; listed as Homo sapiens) [compound 107]", "Observed result": "“+++” (≥50 = +++)"}
{"Substance": "76 (ILIDSIYKV; listed as Homo sapiens) [compound 76]", "Observed result": "“+++” (≥50 = +++)"}
{"Substance": "72 (SLLELDGINL; listed as Homo sapiens) [compound 72]", "Observed result": "“+++” (≥50 = +++)"}
{"Substance": "521 (MLLTKLPTI; listed as Homo sapiens) [compound 521]", "Observed result": "“+++” (≥50 = +++)"}
